System: KRAS PDC tumor spheroids (HUVEC+MSC), viability;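 further: spheroids exposed to compounds for seven days before readout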
measurement notes: Anticancer human tumor 254851-301-R-J1-PDC patient-derived colon carcinoma cell line growth inhibition [KRAS2]; active means viability on the fitted dose curve at most 10% of control; inactive means the rest
measurement setup: second compound 10 µM; first compound 1 µM
Respond using exactly one of the listed classes: t = active, f = inactive

The examples below pair each entry with its known result.
compound	class name
CC1COCCN1c1cc(-c2ccnn2C)c2ccnc(-c3ccn[nH]3)c2n1 (stereo not drawn) + C=CC(=O)N1CCN(c2nc(=O)n(-c3c(C)ccnc3C(C)C)c3nc(-c4c(O)cccc4F)c(F)cc23)C(C)C1	f
CCN1CCN(Cc2ccc(Nc3ncc(F)c(-c4cc(F)c5nc(C)n(C(C)C)c5c4)n3)nc2)CC1 + COc1cc2nc(C)nc(NC(C)c3cc(N)cc(C(F)(F)F)c3)c2cc1OC1CCOC1	t

Now take the following compound into account.
-- ask Could you kindly confirm the outcome this assay logged for Cn1nccc1Nc1nccc(-c2cc3c(s2)C(C)(C)N(CCN2CCOCC2)C3=O)n1 + CC1OCC2(CCN(c3cnc(Sc4ccnc(N)c4Cl)c(N)n3)CC2)C1N ?
-- reply f
